experiment: Solubility in water of each amide; assay type: physicochemical; details: solubility of the amide solvent in water

>  <compound>
CCCCN(CCCC)C(=O)c1ccco1 [Example 6, 2-Furoic acid dibutyl amide]

>  <Water solubility>
Medium

$$$$
>  <compound>
CCCCCCCCCC(=O)N(C)C [Example C3, C10 dimethyl amide, reference compound]

>  <Water solubility>
Low

$$$$
>  <compound>
CCCCN(CCCC)C(=O)C1CCCO1 (stereo not shown) [Example 8, 2-Tetrahydrofuroic Acid Dibutylamide]

>  <Water solubility>
Medium

$$$$
>  <compound>
CN(C)C(=O)c1ccco1 [Example 5, 2-Furoic acid dimethyl amide]

>  <Water solubility>
Medium

$$$$
